experiment: Drug uptake in rat cerebrospinal fluid at 3 mg/kg, sc after 30 mins; type: ADME, organism-based; details: read-out: Drug uptake
assay metric: concentration at 0.5 h (nM)
Give the value, in units of nM, as a plain number.

Give concentration at 0.5 h for Cn1ncc(-c2nn(C)c3ncnc(N4CCC4)c23)c1-c1ccc(C(F)(F)F)cc1
79.9

---

assay: Ratio of unbound concentration in rat brain to plasma at 3 mg/kg, sc after 30 mins; type: ADME, organism-based; conditions: brain and plasma, read-out: K(p,uu,brain)
assay metric: Kp uu at 0.5 h
# output: bare number, no unit

Respond only with Kp uu at 0.5 h recorded for Cn1ncc(-c2nn(C)c3ncnc(N4CCC4)c23)c1-c1ccc(C(F)(F)F)cc1
0.37
